I'd appreciate it if you could supply pEC50 values for the items below.
assayed-system: SIRT1 (Homo sapiens, UniProt Q96EB6)
Sequence (Q96EB6 1-747): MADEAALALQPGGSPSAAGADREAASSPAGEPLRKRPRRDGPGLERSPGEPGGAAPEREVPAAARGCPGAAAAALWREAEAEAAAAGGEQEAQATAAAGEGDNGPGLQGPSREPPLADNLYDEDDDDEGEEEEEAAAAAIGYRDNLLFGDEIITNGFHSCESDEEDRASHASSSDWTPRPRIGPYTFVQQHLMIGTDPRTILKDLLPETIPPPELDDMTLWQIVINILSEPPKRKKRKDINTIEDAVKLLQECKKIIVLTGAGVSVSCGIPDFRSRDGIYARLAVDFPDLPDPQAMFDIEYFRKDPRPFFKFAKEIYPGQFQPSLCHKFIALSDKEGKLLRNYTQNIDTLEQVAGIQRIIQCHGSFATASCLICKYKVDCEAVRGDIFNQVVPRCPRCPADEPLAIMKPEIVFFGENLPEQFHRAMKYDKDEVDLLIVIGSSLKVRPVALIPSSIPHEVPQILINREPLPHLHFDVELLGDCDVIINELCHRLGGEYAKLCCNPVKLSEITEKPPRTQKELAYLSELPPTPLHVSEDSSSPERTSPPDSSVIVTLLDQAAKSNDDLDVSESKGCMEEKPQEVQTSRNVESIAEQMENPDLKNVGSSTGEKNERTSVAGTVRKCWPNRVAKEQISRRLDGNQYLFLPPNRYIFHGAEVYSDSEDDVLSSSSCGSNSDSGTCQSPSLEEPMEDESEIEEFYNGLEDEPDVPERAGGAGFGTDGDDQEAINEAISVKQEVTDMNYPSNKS
assay: SIRT1 mass spectrometry (MS) based deacetylation assay
Assay type: biochemical
settings: SIRT1 activation, mass spectrometry assay; read-out: ED50 MS ASSAY
pEC50: −log10 of the molar value.

Form: Entry = COc1ccc(C(=O)Nc2cccc(-c3nc4ncccc4o3)c2)c(OC)c1 | System = SIRT1 (Homo sapiens, UniProt Q96EB6) | pEC50 = ____
4.30 to 5.30

Next record, please: COc1ccc(C(=O)Nc2cccc(-c3nc4cnccc4s3)c2)c(OC)c1OC
4.30 to 5.30

Next record, please: COc1ccc(C(=O)Nc2ccc(-c3cc4cccnc4o3)cc2)c(OC)c1
> 5.30

Next record, please: O=C(Nc1ccccc1-c1nc2cc(CN3CCOCC3)cnc2s1)c1ccc2c(c1)OCO2
4.30 to 5.30

Next record, please: O=C(Nc1cccc(-c2nc3ccncc3s2)c1)c1ccc2ccccc2n1
> 5.30

Next record, please: CN1CCN(Cc2csc3nc(-c4ccccc4NC(=O)c4cnc5ccccc5n4)cn23)C(=O)C1
> 5.30

Next record, please: CN(C)c1cccc(C(=O)Nc2cc(-c3nc4ncccc4o3)ccn2)c1
4.30 to 5.30

Next record, please: COc1ccc(C(=O)Nc2ccc(-c3nc4ncccc4o3)cc2)cc1
< 3.82

Next record, please: COc1ccc(C(=O)Nc2cccc(-c3csc(C)n3)c2)cc1OC
4.30 to 5.30

* * *

assayed-system: SIRT1 (Homo sapiens, UniProt Q96EB6)
assay: SIRT1 fluorescence polarization (FP) deacetylation assay with p53-based peptide substrates
Assay type: biochemical
settings: SIRT1 activation, read-out: ED50 FP ASSAY
property-name: EC50

Data request, read-out EC50, for COc1ccc(C(=O)Nc2cccc(-c3nc4ncccc4o3)c2)cc1OC
5 to 50 µM

Next record, please: Cc1ccc(C)n1-c1cccc(C(=O)Nc2ccc(-c3nc4ncccc4o3)cc2)c1
> 150 µM

Next record, please: CN(C)c1cccc(C(=O)Nc2cccc(-c3nc4ncccc4o3)c2)c1
5 to 50 µM

Next record, please: COc1ccc(C(=O)Nc2ccc(-c3nc4ncccc4o3)cc2)cc1
> 150 µM

Next record, please: COc1ccc(C(=O)Nc2ccc(-c3nc4ncccc4o3)cc2)cc1OC
> 150 µM

Next record, please: O=C(Nc1ccc(-c2nc3ncccc3o2)cc1)c1ccc(N2CCCC2)cc1
> 150 µM

Next record, please: CN(C)c1ccc(C(=O)Nc2ccc(-c3nc4ncccc4o3)cc2)cc1
> 150 µM

Next record, please: COc1ccc(C(=O)Nc2cccc(-c3nc4ncccc4o3)c2)c(OC)c1
5 to 50 µM

Next record, please: O=C(Nc1ccc(-c2nc3ncccc3o2)cc1)c1cccc(OC(F)(F)F)c1
> 150 µM
